# inhibition at 1 mg/kg annotations
Tested on: plasma renin activity
Experiment: Ex vivo plasma renin activity (PRA) test after oral administration
Assay type: in vivo, Macaca fascicularis
Details: Macaca fascicularis, po, 4 h, read-out: Macaca fascicularis plasma renin activity, PPA inhibitory activity (%, n = 3-7)
Structures can show the parent of a compound that is named as a salt.
measureName: inhibition at 1 mg/kg (%)

molecule | target | measureUnit | resultValue
COCCCCn1c(C(=O)N(CC(C)C)[C@@H]2CNC[C@H](C(=O)O)C2)nc2ccccc21 [Example 33, dihydrochloride] | plasma renin activity | % | 77
COCCCCc1c(C(=O)N(CC(C)C)[C@@H]2CNC[C@H](C(=O)N3CCOCC3)C2)nnn1-c1ccccc1F [Example 233, hydrochloride] | plasma renin activity | % | 67
COCCCCn1c(C(=O)N(CC(C)C)[C@@H]2CNC[C@H](C(=O)N3CCOCC3)C2)nc2ccc(F)cc21 [Example 11, dihydrochloride] | plasma renin activity | % | 89
COCCCCc1c(C(=O)N(CC(C)C)[C@@H]2CNC[C@H](C(=O)N3CCOCC3)C2)nnn1-c1ccccc1Cl [Example 235, hydrochloride] | plasma renin activity | % | 62

====

# inhibition at 1 mg/kg annotations
Tested on: plasma renin activity
Test: Ex vivo plasma renin activity (PRA) test after oral administration
Format: in vivo, Macaca fascicularis
Conditions: Macaca fascicularis, po, 4 h, read-out: Macaca fascicularis plasma renin activity, PPA inhibitory activity (%, n = 3-7)
Where a name gives a salt, the structure may show the parent alone.
measureName: inhibition at 1 mg/kg (%)

compound | target | measureName | resultValue
COCCCCn1c(C(=O)N(CC(C)C)[C@@H]2CNC[C@H](C(=O)N3CCCC3)C2)nc2ccc(OC)cc21 [Example 62, dihydrochloride] | plasma renin activity | inhibition at 1 mg/kg | 75
COCCCCn1c(C(=O)N(CC(C)C)[C@@H]2CNC[C@H](CO)C2)nc2ccccc21 [Example 40, dihydrochloride] | plasma renin activity | inhibition at 1 mg/kg | 75
COCCCCn1c(C(=O)N(CC(C)C)[C@@H]2CNC[C@H](C(=O)N3CCOCC3)C2)nc2ccc(OC)cc21 [Example 60, dihydrochloride] | plasma renin activity | inhibition at 1 mg/kg | 85

====

Tested on: plasma renin activity
Assay: Ex vivo plasma renin activity (PRA) test after oral administration
Assay type: in vivo, Macaca fascicularis
Settings: Macaca fascicularis, po, 4 h, read-out: Macaca fascicularis plasma renin activity, PPA inhibitory activity (%, n = 3-7)
Structures can show the parent of a compound that is named as a salt.
measureName: inhibition at 1 mg/kg (%)

compound | target | measureUnit | resultValue
COCCCCn1c(C(=O)N(CC(C)C)[C@@H]2CNC[C@H](C(=O)N3CCCCC3)C2)nc2ccccc21 [Example 21, dihydrochloride] | plasma renin activity | % | 85
CCCN(C(=O)c1nc2ccccc2n1CCCCOC)[C@@H]1CNC[C@H](C(=O)N2CCOCC2)C1 [Example 255, dihydrochloride] | plasma renin activity | % | 84
CCC(O)[C@H]1CNC[C@@H](N(CC(C)C)C(=O)c2nc3ccccc3n2CCCCOC)C1 (stereo partly drawn) [Example 76, dihydrochloride] | plasma renin activity | % | 79

====

Biological target: Human renin (Homo sapiens, UniProt P00797)
Sequence (P00797 67-406): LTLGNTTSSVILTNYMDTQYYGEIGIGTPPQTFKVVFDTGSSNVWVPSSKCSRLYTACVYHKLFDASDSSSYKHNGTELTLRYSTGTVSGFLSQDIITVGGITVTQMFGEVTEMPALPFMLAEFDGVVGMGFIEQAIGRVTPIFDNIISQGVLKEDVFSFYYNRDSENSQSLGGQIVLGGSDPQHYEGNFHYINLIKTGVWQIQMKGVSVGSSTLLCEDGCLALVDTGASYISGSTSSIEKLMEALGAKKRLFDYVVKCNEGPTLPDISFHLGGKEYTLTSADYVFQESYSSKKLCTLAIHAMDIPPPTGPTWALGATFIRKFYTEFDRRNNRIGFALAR
Test: Human renin inhibition; angiotensin I formed from angiotensinogen quantified by EIA
Conditions: read-out: Human renin inhibitory activity, inhibitory activity (%) at 0.1 μM
Counter-ions that a name gives are not always drawn.

molecule | target | inhibition at 0.1 µM
COCCCCn1c(C(=O)N(CC(C)C)[C@@H]2CNC[C@H]([C@@H](O)COC)C2)nc2ccccc21 [Example 73-1, dihydrochloride] | Human renin (Homo sapiens, UniProt P00797) | 96%
COCCCCn1c(C(=O)N(CC(C)C)[C@@H]2CNC[C@H](C(=O)N3CCOCC3)C2)nc2ccccc21 [Example 49, methanesulfonate] | Human renin (Homo sapiens, UniProt P00797) | 97%
COCCCCn1c(C(=O)N(CC(C)C)[C@@H]2CNC[C@H](C(C)(C)O)C2)nc2ccccc21 [Example 38, dihydrochloride] | Human renin (Homo sapiens, UniProt P00797) | 98%
COCCCn1c(C(=O)N(CC(C)C)[C@@H]2CNC[C@H](C(=O)N3CCOCC3)C2)nc2ccccc21 | Human renin (Homo sapiens, UniProt P00797) | 97%
COCCOCc1c(C(=O)N(CC(C)C)[C@@H]2CNC[C@H](C(=O)N3CCOCC3)C2)nc2ccccn12 [Example 4, dihydrochloride] | Human renin (Homo sapiens, UniProt P00797) | 96%
COCCCCc1c(C(=O)N(CC(C)C)[C@@H]2CNC[C@H](C(=O)N3CCOCC3)C2)nnn1-c1ccccc1Cl [Example 235, hydrochloride] | Human renin (Homo sapiens, UniProt P00797) | 97%
COCCCCn1c(C(=O)N(CC(C)C)[C@@H]2CNC[C@H]([C@H](O)COC)C2)nc2ccccc21 [Example 73-2, dihydrochloride] | Human renin (Homo sapiens, UniProt P00797) | 96%
COCCCCn1c(C(=O)N(CC(C)C)[C@@H]2CNC[C@H](C(=O)N3CCOCC3)C2)cc2ccccc21 [Example 3, hydrochloride] | Human renin (Homo sapiens, UniProt P00797) | 96%
